- TESTED SYSTEM: T1, GST-tagged Sin3A PAH1 (mouse, UniProt Q60520 119-195)
- T1 sequence (looked up): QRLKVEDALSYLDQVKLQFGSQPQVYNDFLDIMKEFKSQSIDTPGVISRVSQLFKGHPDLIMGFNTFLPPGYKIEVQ
- ASSAY EXPLANATION: fluorescence polarisation
No end group written: not given here. TAMRA = carboxytetramethylrhodamine
EXPERIMENTAL ENDPOINT: pKd
Scale for pKd: -log10 of concentration given in mol/L; no unit attached.

Asked: Which measured pKd value corresponds to {TAMRA}-EYDNYDELVAKSLLNLGKIAED (peptide, UniProt Q9UL68 193-214, looked up) [TAMRA-conjugated Myt1L^193−214 SID peptide] ?
Given back: 5.22
